All figures here come from PubChem BioAssay (NCI).

The entries below come with measured TGI values attached.
System: KM12 colon
Experiment: NCI tumour cell line growth inhibition, 48 h

{"Compound": "O=C(N=Nc1c(O)[nH]c2ccccc12)c1oc2ccccc2c1CN1CCN(c2ccccc2)CC1", "TGI": "> 50 µM"}
{"Compound": "O=c1c(C2=NCCC2)c(-c2ccc[nH]2)[nH]n1-c1ccccc1", "TGI": "> 100 µM"}
{"Compound": "COc1ccc(-c2nn(-c3cccc(NC(=O)Nc4ccccc4)c3)cc2-c2ccncc2)cc1Cl", "TGI": "4.89 µM"}
{"Compound": "CN(C)CC1CCC/C(=C\\c2ccc(OC(=O)/C=C/c3ccccc3)cc2)C1=O (stereo not given)", "TGI": "3.44 µM"}
{"Compound": "COc1ccc(-c2nnc3n(Cc4ccccc4)c4ccccc4n3c2=O)cc1", "TGI": "> 100 µM"}
{"Compound": "O=C(O)C1C2C=CC(C2)C1C(=O)O (stereo not given)", "TGI": "> 100 µM"}
{"Compound": "COc1cccc(-n2cc(-c3nc(Nc4cc(C)[nH]n4)c4ccccc4n3)nn2)c1", "TGI": "7.39 µM"}
{"Compound": "Cc1cc(C)n2c(-c3ccccc3)c(C)cc2n1", "TGI": "> 100 µM"}
{"Compound": "CCOC(=O)C1C(c2ccc(O)c(OC)c2)c2c([nH][nH]c2=O)CC1(C)O (stereo not given)", "TGI": "> 100 µM"}
{"Compound": "COc1cccc(CCNc2c(C#N)c3nc4ccccc4n3c3ccccc23)c1", "TGI": "> 44.5 µM"}

* * *

Tested on: LOX IMVI melanoma
Test: NCI tumour cell line growth inhibition, 48 h
The entries below come with measured TGI values attached.

{"Molecule": "O=C(N/C(=C\\c1ccc(/C=C(\\NC(=O)c2ccccc2)c2nc3cc(Cl)ccc3[nH]2)cc1)c1nc2cc(Cl)ccc2[nH]1)c1ccccc1", "Relation Operator": ">", "TGI (µM)": 100}
{"Molecule": "Cc1ccc2c(c1)C1C(CO2)C(c2ccccc2)=NN1c1ccccc1 (centres undefined)", "Relation Operator": ">", "TGI (µM)": 100}
{"Molecule": "CC1(c2cccc(N)c2)C2C(=O)NC(=O)C1C(=O)NC2=O (centres undefined)", "Relation Operator": "=", "TGI (µM)": 81.1}
{"Molecule": "COC1=C(Br)C(O)C2(C=C1Br)CC(C(=O)NCCCCNC(=O)C1=NOC3(C=C(Br)C(OC)=C(Br)C3O)C1)=NO2 (centres undefined)", "Relation Operator": "=", "TGI (µM)": 35.1}
{"Molecule": "O=c1c2cccc(F)c2sc2c(N3CCNCC3)nc3ccccc3c12", "Relation Operator": "=", "TGI (µM)": 2.81}
{"Molecule": "NC(=O)C(=CNC(=S)Nc1ccc(Cl)c(Cl)c1)C(N)=O", "Relation Operator": ">", "TGI (µM)": 100}
{"Molecule": "COc1cc2oc(-c3ccc(O)cc3O)c(CC=C(C)C)c(=O)c2c(O)c1/C=C/C(C)C", "Relation Operator": "=", "TGI (µM)": 3.32}
{"Molecule": "CCOC(=O)NC(C(=O)OCC)(N1CCN(c2cc3c(cc2F)c(=O)c(C(=O)O)cn3CC)CC1)C(F)(F)F (centres undefined)", "Relation Operator": ">", "TGI (µM)": 100}
{"Molecule": "c1cc2nnc1SCCCSc1ccc(nn1)SCCCSc1ccc(nn1)SCCCS2", "Relation Operator": ">", "TGI (µM)": 100}

* * *

Tested on: SN12C renal
Assay: NCI tumour cell line growth inhibition, 48 h
The entries below come with measured TGI values attached.

{"Compound": "O=C1C(=O)c2ccccc2C(O)=C1CCCc1ccc(C2CCCC2)cc1", "TGI": "95 µM"}
{"Compound": "O=C(NNCC(F)(F)F)c1ccncc1", "TGI": "> 100 µM"}
{"Compound": "CO[C@]12C=C/C(=C(/C(=O)OCc3cccnc3)C(=O)CCCCCCCC[C@@]3(OC)C=C/C(=C(/C(=O)OCc4cccnc4)C(=O)CCCCCCCC1)O3)O2", "TGI": "34.2 µM"}
{"Compound": "CCC12CCCNC1c1c(n(C)c3ccccc13)C(C(=O)OC)C2 (stereo unspecified)", "TGI": "> 275 µM"}
{"Compound": "Cc1c(-c2ccccc2)c(C#N)c2nnn(C3CCCCC3)c(=O)n12", "TGI": "> 100 µM"}
{"Compound": "Nn1c(CCCCCCCCc2nnc(COc3ccccc3)n2N)nnc1COc1ccccc1", "TGI": "> 100 µM"}
{"Compound": "Cn1cc(S(=O)(=O)NC(=O)Nc2ccc(Cl)cc2)c2ccccc21", "TGI": "> 100 µM"}
{"Compound": "C[N+](C)(CCCCCC[N+](C)(C)CCCN1C(=O)c2cc3ccccc3cc2C1=O)CCCN1C(=O)c2cc3ccccc3cc2C1=O", "TGI": "> 37.5 µM"}
{"Compound": "Cc1[nH]n(C(=N)N)c(=O)c1CCO", "TGI": "> 100 µM"}
{"Compound": "CCOC(=O)c1ccc2c(c1)nc(/C=C/c1ccc(Cl)cc1)n2-c1cc(C(C)(C)C)[nH]n1", "TGI": "81 µM"}
{"Compound": "N=C(N)SCc1cc(Cl)cc(Cl)c1O", "TGI": "36.6 µM"}
{"Compound": "COc1cccc2c3ccccc3c3nc[nH]c3c12", "TGI": "> 100 µM"}
{"Compound": "CC(=O)c1ccc(Nc2nc(Nc3ccc(F)cc3)nc(Nc3ccc(F)cc3)n2)cc1", "TGI": "> 100 µM"}
{"Compound": "CCN(Cc1ccccc1Cl)c1ccc(CO)c(Cl)c1", "TGI": "24 µM"}
{"Compound": "COc1cccc(CCNc2c(C#N)c3nc4ccccc4n3c3ccccc23)c1", "TGI": "> 70 µM"}
{"Compound": "O=C(Nc1nc(C23CC4CC(CC(C4)C2)C3)cs1)c1cc2cc(Cl)ccc2oc1=O", "TGI": "> 100 µM"}
{"Compound": "Cc1cc2c(C(C)C)c(O)c(O)c(C=NCCO)c2c(O)c1-c1c(C)cc2c(C(C)C)c(O)c(O)c(C=NCCO)c2c1O", "TGI": "9.63 µM"}
{"Compound": "c1ccc(N=c2nc(N3CCOCC3)ss2)cc1", "TGI": "28.5 µM"}
{"Compound": "COC(=O)N/N=C(\\C(=O)Nc1cccc([N+](=O)[O-])c1)c1nc2ccc([N+](=O)[O-])cc2[nH]c1=O", "TGI": "> 100 µM"}
{"Compound": "CCCC[n+]1c(/C=C\\c2c(OC)cc(OC)cc2OC)ccc2ccccc21", "TGI": "5.77 µM"}
{"Compound": "NC(=S)N/N=C/c1ccc(N)cn1", "TGI": "> 10 µM"}

* * *

The entries below come with measured TGI values attached.
Test system: KM12 colon
Assay: NCI tumour cell line growth inhibition, 48 h
Measured Attribute: TGI

{"Compound": "CSc1c(C(=O)Nc2ccc(C)cc2)c(N)n(N)c(=O)c1C#N", "Tested System": "KM12 colon", "Obs Value": "> 100 µM"}
{"Compound": "O=c1c2c(c3ccccc3n1-c1ccccc1)NC(=S)NC2c1ccc(Cl)cc1 (stereo not drawn)", "Tested System": "KM12 colon", "Obs Value": "11.7 µM"}
{"Compound": "COc1cccc2c3ccccc3c3nc[nH]c3c12", "Tested System": "KM12 colon", "Obs Value": "> 100 µM"}
{"Compound": "COC1(OC)N=C(N)C2(C#N)C3(C(=O)N(C(C)C)N=C3C)C12C#N (stereo not drawn)", "Tested System": "KM12 colon", "Obs Value": "> 100 µM"}
{"Compound": "COc1ccc2c(Cc3c4ccccc4cc4ccccc34)cncc2c1O", "Tested System": "KM12 colon", "Obs Value": "8.69 µM"}
{"Compound": "O=C(O)CCNC(=O)c1cc(N(CCBr)CCBr)c([N+](=O)[O-])cc1[N+](=O)[O-]", "Tested System": "KM12 colon", "Obs Value": "> 100 µM"}
{"Compound": "O=C(Nc1c(C(=O)NC2CCCCC2)[nH]c(=O)[nH]c1=O)c1ccc(Cl)cc1", "Tested System": "KM12 colon", "Obs Value": "> 100 µM"}
{"Compound": "COC1=C(Br)C(O)C2(C=C1Br)CC(C(=O)NCCCCNC(=O)C1=NOC3(C=C(Br)C(OC)=C(Br)C3O)C1)=NO2 (stereo not drawn)", "Tested System": "KM12 colon", "Obs Value": "27.3 µM"}
{"Compound": "COc1ccc2c(c1)C1OCCNC1CC2 (stereo not drawn)", "Tested System": "KM12 colon", "Obs Value": "> 100 µM"}
{"Compound": "COC(=O)c1c2c(cc3c1CC1(C3)Cc3cc4c(c(C(C)=O)c3C1)CCC4)C=CC2 (stereo not drawn)", "Tested System": "KM12 colon", "Obs Value": "> 31.6 µM"}
{"Compound": "N#Cc1ccsc1NC(=O)COC(=O)c1cccc(S(=O)(=O)N2CCc3ccccc32)c1", "Tested System": "KM12 colon", "Obs Value": "> 100 µM"}
{"Compound": "O=C1C(Nc2ccc(Br)cc2)=C(I)C(=O)c2ncccc21", "Tested System": "KM12 colon", "Obs Value": "8.41 µM"}
{"Compound": "COc1ccc2c(c1)[n+]([O-])c(-c1ccc(Br)cc1)c(N)[n+]2[O-]", "Tested System": "KM12 colon", "Obs Value": "> 100 µM"}
